Data provenance is PubChem BioAssay.

- protocolDetails: binders from COS7 lysate, DM2A8 probe, primary screen, torsin A project, cell lysate, small-molecule microarray, fluorescence 635/667 (AID 1065)
- assayConditions: higher = more signal, COS7 lysate expressing mutant human TOR1A
Would you mind classing the entries by composite z-score? Ranges: small value: < -0.1; mid value: ≥ -0.1 and < 0.5; large value: ≥ 0.5

Here's what some known entries look like.
molecule	group
CC(C)c1ccc(NN2C(C(O)c3ccco3)C=CC3C(=O)N(c4ccccc4)C(=O)C32)cc1 (stereo not given)	mid value
CCN(CC)c1ccc(N2CC=CC34O[C@@H]5/C=C\CCC(C)OC(=O)C5[C@H]3C(=O)N(CCO)[C@@H]4C2=O)cc1 (stereo not given in full)	small value
NCCCCCCNC(=O)[C@@H]1C[C@@H]2C(=O)N3CCC[C@H]3C(=O)N2[C@@H]1c1ccc(O)cc1	mid value
COCCCNC(=O)[C@]1(Cc2ccccc2N=[N+]=[N-])N=C(c2ccc(OCCCO)cc2)O[C@@H]1c1ccccc1N=[N+]=[N-]	mid value
CCOC(=O)C[C@H]1[C@H](OC(=O)c2ccc(-c3ccccc3)cc2)[C@@H](NC(=O)c2ccc3ccccc3c2)c2cc(OCCCO)ccc2N1C(=O)c1ccc2ccccc2n1	mid value
CCOc1cc(C(O)C2C=CC3C(=O)N(C4CCCCC4)C(=O)C3N2Nc2ccc(OC)cc2)ccc1O (stereo not given)	mid value
C=C(C(=O)CC[C@H](OC(C)=O)c1cccc(OCCO)c1)C(C)C	small value
[N-]=[N+]=NCc1ccccc1C[C@]1(C(=O)NCC(O)CO)N=C(c2ccc(OCCCO)cc2)O[C@H]1c1ccccc1CN=[N+]=[N-] (stereo not given in full)	large value
COCCOC(=O)N1C(=O)[C@@]2(c3ccccc31)[C@H](c1ccc(OCCO)cc1)N1[C@H](c3ccccc3)[C@H](c3ccccc3)OC(=O)[C@H]1[C@@H]2C(=O)Nc1nc2ccccc2s1	small value
CCOC(=O)C[C@H]1[C@H](OC(=O)c2ccc(-c3ccccc3)cc2)[C@@H](NC(=O)C2CCCCC2)c2cc(OCCCO)ccc2N1C(=O)c1ccccc1	mid value

Query: Band for the recorded composite z-score of COc1cc(CO)cc(I)c1O[C@H]1C=C(C(=O)NCCO)C[C@@H](NCc2ccccc2F)[C@@H]1O ?
Result: large value

Query: Band for the recorded composite z-score of O=C1O[C@@H](c2ccccc2)[C@@H](c2ccccc2)N2[C@@H](c3ccc(O)cc3)[C@]3(C(=O)Nc4ccc(C#CC5=CCCCC5)cc43)[C@@H](C(=O)N3CCN(c4ncccn4)CC3)[C@H]12 ?
Result: large value

Query: Band for the recorded composite z-score of Cc1ccc(S[C@]2(C(=O)NC(C)C)CC(=O)N(Cc3ccccc3C(F)(F)F)[C@@H]2c2ccc(CO)cc2I)cc1 ?
Result: small value

Query: Band for the recorded composite z-score of [N-]=[N+]=Nc1ccccc1C[C@]1(C(=O)NCc2ccccc2)N=C(c2ccc(OCCCO)cc2)O[C@H]1c1ccccc1 ?
Result: large value
